subject_of_test: T1, full length recombinant human 2N4R tau (amino acids 1-441) (human, UniProt P10636 1-758)
T1 construct: Bought (rPeptide); recombinant, non-phosphorylated; also called recombinant tau
experiment_description: SPR Biacore SCK, IgG on Protein A, tau analyte
Below is a list of entries, each paired with its recorded Relative KD value.

binder: Clone 22 (VH3Vκ1), humanised variant of clone #28, human IgG1 (antibody, V domains shown, also called VH3VK1) VH: QVQLQESGPGLVKPSETLSLTCTVSGFSLNNYDMSWVRQAPGKGLEWIGTVSTTYRRYYASWAKGRFTISKTSSTTVDLQMTSLTAEDTATYFCAASGIWGRGTLVTVSS VL: AQVLTQSTSPLSASVGDRVTITCQSSQRVYSNYLAWYQQKPGQPPKRLIFLASTLESGVPSRFSGSGSGTEFTLTISSLQCDDFATYYCAGTYTGSIWAFGGGTEVVIK
Relative KD (fold vs VH0VK0): 0.97
//
binder: Clone #28 VH0VK0 chimeric human IgG1 (rabbit VH and VK of Clone 1) (antibody, V domains shown, also called VH0Vκ0; #28 VH0κ0) VH: QSLEESGGGLVKPGGTLTLTCTVSGFSLNNYDMSWVRQAPGKGLEWIGTVSTTYRRYYASWAKGRFTISKTSSTTVDLKMTSLTTEDTATYFCAASGIWGPGTLVTVSL VL: AQVLTQTTSPVSAAVGGTVTINCQSSQRVYSNYLAWYQQKPGQPPKRLIFLASTLESGVPSRFSGSGSGTQFTLTISDLECDDAATYYCAGTYTGSIWAFGGGTEVVVK
Relative KD (fold vs VH0VK0): 1
//
binder: Clone 19 (VH2Vκ2), humanised variant of clone #28, human IgG1 (antibody, V domains shown, also called VH2VK2) VH: QSLQESGPGLVKPSETLSLTCTVSGFSLNNYDMSWVRQAPGKGLEWIGTVSTTYRRYYASWAKGRFTISKTSSTTVDLQMTSLTAEDTATYFCAASGIWGRGTLVTVSS VL: AQVLTQSPSTLSASVGDRVTITCQSSQRVYSNYLAWYQQKPGQPPKRLIFLASTLESGVPSRFSGSGSGTEFTLTISSLQPDDFATYYCAGTYTGSIWAFGGGTKVEIK
Relative KD (fold vs VH0VK0): 1.49
